The reported measurements were obtained from the supplement of paper PMC8975748.

# System: Saccharomyces cerevisiae BY4741 SeMeCo community
# METHOD: z-score of subpopulation abundance vs DMSO median, subpopulation auxotrophic for HLU; higher = larger share of this subpopulation than in DMSO controls
# RUN_CONDITIONS: 10 µM; 24 h; SM minimal medium; subpopulation (auxotrophy): HLU
Counter-ions that a name gives are not always drawn.
Values of z-score of subpopulation abundance greater than or equal to 0 map to met; values below map to not met.

A selection of reference data follows.
>>> assigned_label("CCC(C)C1OC2(CCC1C)CC1CC(CC=C(C)C(OC3CC(OC)C(OC4CC(OC)C(O)C(C)O4)C(C)O3)C(C)C=CC=C3COC4C(O)C(C)=CC(C(=O)O1)C34O)O2 (stereo not drawn)")
"met"
>>> assigned_label("CC[C@H](C)C(=O)O[C@H]1CCC=C2C=C[C@H](C)[C@H](CC[C@@H]3C[C@@H](O)CC(=O)O3)[C@H]21")
"met"
>>> assigned_label("C1N2CN3CN1CN(C2)C3")
"not met"
>>> assigned_label("CCN1CCN(C(=O)N[C@@H](C(=O)N[C@@H]2C(=O)N3C(C(=O)O)=C(CSc4nnnn4C)CS[C@H]23)c2ccc(O)cc2)C(=O)C1=O")
"not met"
>>> assigned_label("CC(=O)N[C@H]1[C@H]([C@H](O)[C@H](O)CO)OC(C(=O)O)=C[C@@H]1NC(=N)N")
"met"

Problem: Evaluate "C[C@]1(COc2ccc(N3CCC(Oc4ccc(OC(F)(F)F)cc4)CC3)cc2)Cn2cc([N+](=O)[O-])nc2O1" : z-score of subpopulation abundance at minimum 0?
Solution: met

Problem: z-score of subpopulation abundance >= 0 for Cc1ncc([N+](=O)[O-])n1CCOC(=O)c1ccccc1 [Metronidazole Benzoate] ?
Solution: not met

Problem: Threshold query (z-score of subpopulation abundance >= 0) on C[C@H]1COc2c(C3(N)CC3)c(F)cc3c(=O)c(C(=O)O)cn1c23 [Pazufloxacin mesylate]
Solution: met

----------
Give z-score of prototroph abundance for every item shown.
# System: Saccharomyces cerevisiae BY4741 SeMeCo community
# METHOD: z-score of prototroph abundance vs DMSO median; higher = larger share of this subpopulation than in DMSO controls
# RUN_CONDITIONS: 10 µM; 24 h; SM minimal medium; subpopulation (auxotrophy): Prototroph
Structures can show the parent of a compound that is named as a salt.
Answers are plain numbers.

// known answers, use as guide
>>> recorded_measurement("CO[C@H]1C[C@@H]2CC[C@@H](C)[C@@](O)(O2)C(=O)C(=O)N2CCCC[C@H]2C(=O)O[C@H]([C@H](C)C[C@@H]2CC[C@@H](OCCO)[C@H](OC)C2)CC(=O)[C@H](C)/C=C(\\C)[C@@H](O)[C@@H](OC)C(=O)[C@H](C)C[C@H](C)/C=C/C=C/C=C/1C [Everolimus (RAD001)]")
-18.1
>>> recorded_measurement("COc1ccc2c(c1)c(CC(=O)OCC(=O)O)c(C)n2C(=O)c1ccc(Cl)cc1")
-0.16

We next turn to a different compound, shown below.
z-score of prototroph abundance for CNS(=O)(=O)CCc1ccc2[nH]cc(C3CCN(C)CC3)c2c1 [Naratriptan HCl] is 0.15

----------
# System: Saccharomyces cerevisiae BY4741 SeMeCo community
# METHOD: z-score of subpopulation abundance vs DMSO median, subpopulation auxotrophic for HUM; higher = larger share of this subpopulation than in DMSO controls
# RUN_CONDITIONS: 10 µM; 24 h; SM minimal medium; subpopulation (auxotrophy): HUM
Structures can show the parent of a compound that is named as a salt.
I'd be grateful if you could share measured z-score of subpopulation abundance for these entries.
Answers are plain numbers.

Here's what some known entries look like.
>>> recorded_measurement("NC(=O)Cc1cccc(C(=O)c2ccccc2)c1N [Nepafenac]")
-0.01
>>> recorded_measurement("Cn1c([N+](=O)[O-])cnc1COC(N)=O [Ronidazole]")
-0.57

Hey, can you go through the list below and give me z-score of subpopulation abundance for every item?
1. CONC(=O)Nc1ccc(-c2sc3c(c2CN(C)C)c(=O)n(-c2ccc(OC)nn2)c(=O)n3Cc2c(F)cccc2F)cc1 [Relugolix]
2. CCCCc1oc2ccccc2c1C(=O)c1cc(I)c(OCCN(CC)CC)c(I)c1 [Amiodarone HCl]
3. Cn1c(=O)c2c(ncn2CC(O)CO)n(C)c1=O (stereo not given) [Dyphylline]

Solution:
1. -0.45
2. 4.79
3. -1.32

I have 6 compounds here; please give me z-score of subpopulation abundance for each one.
1. CC1CCc2cc(F)cc3c(=O)c(C(=O)O)cn1c23 (stereo not given) [Flumequine]
2. CC(=O)OCC1=C(C(=O)O)N2C(=O)[C@@H](NC(=O)Cc3cccs3)[C@H]2SC1 [Cephalothin]
3. Cc1nc(Nc2ccc(F)cc2)nc(N2CCc3ccccc3C2C)c1C (stereo not given) [Revaprazan Hydrochloride]
4. COc1ccccc1OCC(O)CN1CCN(CC(=O)Nc2c(C)cccc2C)CC1 (stereo not given) [Ranolazine]
5. N=C(N)NS(=O)(=O)c1ccc(N)cc1 [Sulfaguanidine]
6. CCOc1ccc(NC(C)=O)cc1 [Phenacetin]

Solution:
1. -0.88
2. -0.69
3. 0.45
4. 0.18
5. -1.13
6. 1.17

----------
# Test system: Saccharomyces cerevisiae BY4741 SeMeCo community
# METHOD: z-score of subpopulation abundance vs DMSO median, subpopulation auxotrophic for HLM; higher = larger share of this subpopulation than in DMSO controls
# RUN_CONDITIONS: 10 µM; 24 h; SM minimal medium; subpopulation (auxotrophy): HLM
Counter-ions that a name gives are not always drawn.
Measured z-score of subpopulation abundance determines class: low (below -0.5), mid (-0.5 to below 0.5), high (0.5 or more)

Use the examples below as a reference point.
>>> assigned_label("CCCCCOc1ccccc1/C(=C\\SC)n1ccnc1 [Neticonazole Hydrochloride]")
"high"
>>> assigned_label("CN(CCOc1ccc(NS(C)(=O)=O)cc1)CCc1ccc(NS(C)(=O)=O)cc1 [Dofetilide]")
"low"
>>> assigned_label("CC(=O)OCC[N+](C)(C)C [Acetylcholine iodide]")
"low"
>>> assigned_label("Nc1ccc(/N=N/c2ccccc2)c(N)n1 [Phenazopyridine HCl]")
"mid"

Problem: Hey, which category is "Nc1nc2ccc(OC(F)(F)F)cc2s1" in, do you know?
Solution: high

Problem: Which class is correct for the following molecule? C[C@@H](CN1CC(=O)NC(=O)C1)N1CC(=O)NC(=O)C1 [Dexrazoxane HCl (ICRF-187, ADR-529)]
Solution: low

----------
Provide the reported z-score of subpopulation abundance of each item.
# System: Saccharomyces cerevisiae BY4741 SeMeCo community
# METHOD: z-score of subpopulation abundance vs DMSO median, subpopulation auxotrophic for H; higher = larger share of this subpopulation than in DMSO controls
# RUN_CONDITIONS: 10 µM; 24 h; SM minimal medium; subpopulation (auxotrophy): H
Where a name gives a salt, the structure may show the parent alone.
Give bare numbers.

See these solved cases before continuing.
>>> recorded_measurement("CCn1cc(C(=O)O)c(=O)c2cnc(N3CCNCC3)nc21")
-1.07
>>> recorded_measurement("Cc1ccc(Cl)c(Nc2ccccc2C(=O)O)c1Cl [Meclofenamate Sodium]")
-0.35
>>> recorded_measurement("CCOC(=O)c1ccc(O)cc1")
-0.25
>>> recorded_measurement("CCOC(=O)c1ccc(N)cc1 [Benzocaine hydrochloride]")
-0.31
>>> recorded_measurement("COC(=O)C1=C(C)NC(C)=C(C(=O)OC(C)(C)CN(C)CCC(c2ccccc2)c2ccccc2)C1c1cccc([N+](=O)[O-])c1 (stereo not drawn) [Lercanidipine hydrochloride]")
2.45

State recorded z-score of subpopulation abundance for all listed compounds.
1. CCCc1nn(C)c2c(=O)[nH]c(-c3cc(S(=O)(=O)N4CCN(C)CC4)ccc3OCC)nc12 [Sildenafil Citrate]
2. OC(Cn1cncn1)(Cn1cncn1)c1ccc(F)cc1F
3. CC[C@@H]1/C=C(\C)C[C@H](C)C[C@H](OC)[C@H]2O[C@@](O)(C(=O)C(=O)N3CCCC[C@H]3C(=O)O[C@H](/C(C)=C/[C@@H]3CC[C@@H](O)[C@H](OC)C3)[C@H](C)[C@@H](O)CC1=O)[C@H](C)C[C@@H]2OC

Solution:
-0.22
-2.16
1.96

----------
Could you please report measured z-score of subpopulation abundance for the items listed next?
# Test system: Saccharomyces cerevisiae BY4741 SeMeCo community
# METHOD: z-score of subpopulation abundance vs DMSO median, subpopulation auxotrophic for M; higher = larger share of this subpopulation than in DMSO controls
# RUN_CONDITIONS: 10 µM; 24 h; SM minimal medium; subpopulation (auxotrophy): M
Structures can show the parent of a compound that is named as a salt.
Answers are plain numbers.

Below, 3 molecules whose answers are already recorded.
>>> recorded_measurement("O=C(O)c1cc(/N=N/c2ccc(O)c(C(=O)O)c2)ccc1O [Olsalazine Sodium]")
-0.62
>>> recorded_measurement("CC(C)Cc1ccc(C(C)C(=O)O)cc1 (configuration not stated)")
-0.51
>>> recorded_measurement("Cc1cnc(NC(=O)C2=C(O)c3ccccc3S(=O)(=O)N2C)s1")
-0.52

For every item in the list below, what is its measured z-score of subpopulation abundance?
1. O=C(O)c1cc(O)c2c(c1)[C@H]([C@H]1c3cc(C(=O)O)cc(O)c3C(=O)c3c(O[C@@H]4O[C@H](CO)[C@@H](O)[C@H](O)[C@H]4O)cccc31)c1cccc(O[C@@H]3O[C@H](CO)[C@@H](O)[C@H](O)[C@H]3O)c1C2=O [Sennoside A]
2. COc1ccc(C(=O)NCc2ccc(OCCN(C)C)cc2)cc1OC [Itopride hydrochloride]
3. CC(C)C(=O)c1c(C(C)C)nn2ccccc12
4. O=C(O[C@@H]1C[C@@H]2C[C@H]3C[C@H](C1)N2CC3=O)c1c[nH]c2ccccc12 [Dolasetron Mesylate]
5. Cc1c(-c2ccc(O)cc2)n(Cc2ccc(OCCN3CCCCCC3)cc2)c2ccc(O)cc12 [Bazedoxifene Acetate]

Solution:
-1.76
0.65
-0.62
0.81
0.99
